# Ki values compiled below
# target: Proteasome Macropain subunit MB1 (Homo sapiens)
# Sequence (P28074 whole entry): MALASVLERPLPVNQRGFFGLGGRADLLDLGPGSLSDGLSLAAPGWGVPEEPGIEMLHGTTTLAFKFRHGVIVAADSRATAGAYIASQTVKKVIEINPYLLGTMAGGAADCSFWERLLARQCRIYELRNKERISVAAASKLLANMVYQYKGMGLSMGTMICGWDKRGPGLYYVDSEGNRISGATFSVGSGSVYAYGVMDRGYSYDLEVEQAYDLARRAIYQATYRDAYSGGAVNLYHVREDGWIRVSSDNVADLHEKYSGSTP
# assay_overview: Competitive inhibition of human 20S constitutive proteosome beta5c subunit using Suc-LLVY-AMC as substrate measured after 10 mins by fluorescence based analysis

>  <smiles_str>
N#Cc1cccc(NC(=O)Nc2ccc3n(c2=O)C[C@@H]2C[C@H]3CN(C(=O)c3ccc4ccccc4c3)C2)c1

>  <target>
Proteasome Macropain subunit MB1 (Homo sapiens)

>  <endpoint_unit>
µM

>  <Ki>
3.42

$$$$
>  <smiles_str>
COc1ccccc1NC(=O)Nc1ccc2n(c1=O)C[C@@H]1C[C@H]2CN(C(=O)c2ccc3ccccc3c2)C1

>  <target>
Proteasome Macropain subunit MB1 (Homo sapiens)

>  <endpoint_unit>
µM

>  <Ki>
4.6

$$$$
>  <smiles_str>
O=C(Nc1ccc(Cl)cc1)Nc1ccc2n(c1=O)C[C@@H]1C[C@H]2CN(C(=O)c2ccc3ccccc3c2)C1

>  <target>
Proteasome Macropain subunit MB1 (Homo sapiens)

>  <endpoint_unit>
µM

>  <Ki>
1.14

$$$$
>  <smiles_str>
O=C(Nc1ccccc1)Nc1ccc2n(c1=O)C[C@@H]1C[C@H]2CN(C(=O)c2ccc3ccccc3c2)C1

>  <target>
Proteasome Macropain subunit MB1 (Homo sapiens)

>  <endpoint_unit>
µM

>  <Ki>
9.69

$$$$

====

# pIC50 values compiled below
# target: Proteasome Macropain subunit MB1 (Homo sapiens, UniProt P28074)
# Sequence (P28074 whole entry): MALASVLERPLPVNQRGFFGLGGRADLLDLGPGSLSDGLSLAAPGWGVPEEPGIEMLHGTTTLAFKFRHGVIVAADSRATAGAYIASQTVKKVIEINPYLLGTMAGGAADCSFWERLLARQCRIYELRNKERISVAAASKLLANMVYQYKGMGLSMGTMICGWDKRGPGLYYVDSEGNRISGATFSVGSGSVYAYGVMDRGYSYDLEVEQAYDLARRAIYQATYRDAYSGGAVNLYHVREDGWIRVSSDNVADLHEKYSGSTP
# assay_overview: Inhibition of human 20S constitutive proteosome beta5c subunit using Suc-LLVY-AMC as substrate measured after 10 mins by fluorescence based analysis
pIC50: −log10 of the molar value.

>  <smiles_str>
COc1ccccc1NC(=O)Nc1ccc2n(c1=O)C[C@@H]1C[C@H]2CN(C(=O)c2ccc3ccccc3c2)C1

>  <target>
Proteasome Macropain subunit MB1 (Homo sapiens, UniProt P28074)

>  <bound_sign>
=

>  <pIC50>
5.18

$$$$
>  <smiles_str>
COc1ccccc1NC(=O)Nc1ccc2n(c1=O)C[C@@H]1C[C@H]2CN(C(=O)c2ccccn2)C1

>  <target>
Proteasome Macropain subunit MB1 (Homo sapiens, UniProt P28074)

>  <bound_sign>
=

>  <pIC50>
3.25

$$$$
>  <smiles_str>
O=C(Nc1ccc(Cl)cc1)Nc1ccc2n(c1=O)C[C@@H]1C[C@H]2CN(C(=O)c2ccc3ccccc3c2)C1

>  <target>
Proteasome Macropain subunit MB1 (Homo sapiens, UniProt P28074)

>  <bound_sign>
=

>  <pIC50>
5.46

$$$$
>  <smiles_str>
N#Cc1cccc(NC(=O)Nc2ccc3n(c2=O)C[C@@H]2C[C@H]3CN(C(=O)c3ccc4ccccc4c3)C2)c1

>  <target>
Proteasome Macropain subunit MB1 (Homo sapiens, UniProt P28074)

>  <bound_sign>
=

>  <pIC50>
4.99

$$$$
>  <smiles_str>
N#Cc1cccc(NC(=O)Nc2ccc3n(c2=O)C[C@@H]2C[C@H]3CN(C(=O)c3ccccc3)C2)c1

>  <target>
Proteasome Macropain subunit MB1 (Homo sapiens, UniProt P28074)

>  <bound_sign>
=

>  <pIC50>
3.70

$$$$
>  <smiles_str>
CC(=O)N1C[C@H]2C[C@@H](C1)c1ccc(NC(=O)Nc3cccc(C#N)c3)c(=O)n1C2

>  <target>
Proteasome Macropain subunit MB1 (Homo sapiens, UniProt P28074)

>  <bound_sign>
=

>  <pIC50>
3.31

$$$$
>  <smiles_str>
N#Cc1cccc(NC(=O)Nc2ccc3n(c2=O)C[C@@H]2C[C@H]3CN(C(=O)c3cccnc3)C2)c1

>  <target>
Proteasome Macropain subunit MB1 (Homo sapiens, UniProt P28074)

>  <bound_sign>
=

>  <pIC50>
3.36

$$$$
>  <smiles_str>
O=C(Nc1ccccc1)Nc1ccc2n(c1=O)C[C@@H]1C[C@H]2CN(C(=O)c2ccc3ccccc3c2)C1

>  <target>
Proteasome Macropain subunit MB1 (Homo sapiens, UniProt P28074)

>  <bound_sign>
=

>  <pIC50>
4.95

$$$$
>  <smiles_str>
O=C(Nc1ccccc1)Nc1ccc2n(c1=O)C[C@@H]1C[C@H]2CN(C(=O)c2ccccn2)C1

>  <target>
Proteasome Macropain subunit MB1 (Homo sapiens, UniProt P28074)

>  <bound_sign>
<

>  <pIC50>
3.30

$$$$
